Values compiled from patent US20230120736A1.

methodSummary: Conjugation of anti-CD98 mAbs with Bcl-xL inhibitor synthons (precipitation, DAR, recovery, aggregation)
protocolConditions: mAb conjugated with Bcl-xL inhibitor synthon CZ, Method A
resultType: DAR by MS

molecule: huAb15v2 (antibody, V domains shown) VH: EVQLVESGGGVVQPGRSLRLSCAASGFTFSDYTMAWVRQAPGKGLEWVATIIYSGRGTYYRDAVKGRFTISRDNSKSTLYLQMNSLRAEDTAVYYCARQSDDTYYYWGYFDYWGQGTMVTVSS VL: DIVMTQSPDSLAVSLGERATINCKSSQSLLFSGNQKNYLAWYQQKPGQSPKLLIYWASTRQSGVPDRFSGSGSGTDFTLTIRSLQAEDVAIYYCQQYYDVPYTFGQGTKLEIK
resultType: DAR by MS
quantitativeReadout: 2.1

molecule: huAb15v4 (antibody, V domains shown) VH: EVQLVESGGGVVQPGRSLRLSCAASGFTFSDYTMAWVRQAPGKGLEWVATIIYTGRGTYYRDAVKGRFTISRDNSKSTLYLQMNSLRAEDTAVYYCARQSDDTYYYWGYFDYWGQGTMVTVSS VL: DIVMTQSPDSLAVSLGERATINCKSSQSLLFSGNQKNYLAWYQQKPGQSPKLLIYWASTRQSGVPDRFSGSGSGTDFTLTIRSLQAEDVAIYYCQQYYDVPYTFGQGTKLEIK
resultType: DAR by MS
quantitativeReadout: 1.9

molecule: huAb15v6 (antibody, V domains shown) VH: EVQLVESGGGVVQPGRSLRLSCAASGFTFSDYTMAWVRQAPGKGLEWVATIIYDARGTYYRDAVKGRFTISRDNSKSTLYLQMNSLRAEDTAVYYCARQSDDTYYYWGYFDYWGQGTMVTVSS VL: DIVMTQSPDSLAVSLGERATINCKSSQSLLFSGNQKNYLAWYQQKPGQSPKLLIYWASTRQSGVPDRFSGSGSGTDFTLTIRSLQAEDVAIYYCQQYYSSPYTFGQGTKLEIK
resultType: DAR by MS
quantitativeReadout: 2.0
